Numbers sourced from paper PMC8557866.

Answer each item with its documented Mortality reduction compared to PC group.
system: APEC serotype O78; conditions: efficacy trial, oral; PC mortality 58.3%
Expressed in %, but write only the number.

Name the recorded Mortality reduction compared to PC group for COc1cc(CNCCc2ccc3ccccc3c2)ccc1OCC(O)CN1CCCC1 (centres unmarked) .
25

Name the recorded Mortality reduction compared to PC group for COc1ccc(CNCc2cccc(C(F)(F)F)c2)cc1OCC(O)CN1CCCC1 (centres unmarked) .
41.7

Name the recorded Mortality reduction compared to PC group for CC1CCCN(CCC(=O)c2ccc(Br)cc2)C1 (centres unmarked) .
8.3

Name the recorded Mortality reduction compared to PC group for CCN1/C(=C/c2ccc3ccccc3[n+]2CC)C=Cc2ccccc21 .
25

Name the recorded Mortality reduction compared to PC group for CC(=O)OC(C(Br)C(=O)c1ccc([N+](=O)[O-])cc1)C(Cl)(Cl)Cl (centres unmarked) .
41.7

###

Answer each item with its documented Mean APEC load, Kidney.
tested on: APEC serotype O78; settings: efficacy trial, oral
Expressed in Log CFU/g tissues, but write only the number.

Name the recorded Mean APEC load, Kidney for CCN1/C(=C/c2ccc3ccccc3[n+]2CC)C=Cc2ccccc21 .
5.7

Name the recorded Mean APEC load, Kidney for COc1cc(CNCCc2ccc(C)cc2)ccc1OCC(O)CN1CCCC1 (stereo not drawn) .
6.9

Name the recorded Mean APEC load, Kidney for CC(=O)OC(C(Br)C(=O)c1ccc([N+](=O)[O-])cc1)C(Cl)(Cl)Cl (stereo not drawn) .
3.1

Name the recorded Mean APEC load, Kidney for COc1cc(CNCCc2ccc3ccccc3c2)ccc1OCC(O)CN1CCCC1 (stereo not drawn) .
3.8

Name the recorded Mean APEC load, Kidney for CC1CCCN(CCC(=O)c2ccc(Br)cc2)C1 (stereo not drawn) .
6.6

Name the recorded Mean APEC load, Kidney for COc1ccc(CNCc2cccc(C(F)(F)F)c2)cc1OCC(O)CN1CCCC1 (stereo not drawn) .
2.3

###

Answer each item with its documented Cmax.
Test: Pharmacokinetic study in plasma of chickens (LC-MS)
Format: in vivo
Settings: commercial broiler, plasma, po; mean ± standard deviation; read-out: Peak plasma concentration (Cmax)
Procedure: Details of the methods are included in the supplemental material. page 3: previously(3). […] The mixtures were then incubated at […] for 30 min and proteins were removed by ultracentrifugation at 13,000xg for 25 min at 2 °C.
Expressed in ng/mL, but write only the number.

Name the recorded Cmax for COc1cc(NS(=O)(=O)c2ccc(N)cc2)nc(OC)n1 [SDM, sulfadimethoxine, reference compound] .
994

Name the recorded Cmax for COc1ccc(CNCc2cccc(C(F)(F)F)c2)cc1OCC(O)CN1CCCC1 (centres unmarked) .
434

###

system: APEC serotype O78; conditions: in vivo
Could you mark each record T if its BWG (body weight gain) falls strictly under 200, and F if it equals or exceeds it?

Lab note: BWG (body weight gain) threshold 200. Does this molecule come in strictly under it? CCN1/C(=C/c2ccc3ccccc3[n+]2CC)C=Cc2ccccc21 [GI-9]
F

Lab note: BWG (body weight gain) threshold 200. Does this molecule come in strictly under it? COc1cc(CNCCc2ccc(C)cc2)ccc1OCC(O)CN1CCCC1 (stereo not drawn) [GI-3]
F

Lab note: BWG (body weight gain) threshold 200. Does this molecule come in strictly under it? CC1CCCN(CCC(=O)c2ccc(Br)cc2)C1 (stereo not drawn) [GI-1]
T

Lab note: BWG (body weight gain) threshold 200. Does this molecule come in strictly under it? CC(=O)OC(C(Br)C(=O)c1ccc([N+](=O)[O-])cc1)C(Cl)(Cl)Cl (stereo not drawn) [GI-10]
F

Lab note: BWG (body weight gain) threshold 200. Does this molecule come in strictly under it? COc1ccc(CNCc2cccc(C(F)(F)F)c2)cc1OCC(O)CN1CCCC1 (stereo not drawn) [GI-7]
F

Lab note: BWG (body weight gain) threshold 200. Does this molecule come in strictly under it? COc1cc(CNCCc2ccc3ccccc3c2)ccc1OCC(O)CN1CCCC1 (stereo not drawn) [GI-2]
T
